Where do the numbers come from? From PubChem BioAssay (NCI).

tested on: NCI-H460 lung; test: NCI tumour cell line growth inhibition, 48 h
endpoint_name: TGI (µM)
Write it as a number; the unit µM goes unstated.

| compound | assay_target | measured |
| --- | --- | --- |
| C[As](C)SCC(COC(=O)c1ccccc1)OC(=O)c1ccccc1 (centres undefined) | NCI-H460 lung | 12.1 |
| CSc1nc(Cl)c2c(n1)Sc1ncnn1C2O (centres undefined) | NCI-H460 lung | 46.4 |

With those in mind, consider the next compound.
Input C=C1C(=O)O[C@H]2[C@H]1CC/C(Cn1cc(CNC(=O)c3cc4ccccc4[nH]3)nn1)=C\CC[C@@]1(C)O[C@@H]21 . Output TGI: 41
